# Measurement Target: T1, human Angiotensin II Receptor Type 2 (AT2R) (human, UniProt P50052 1-363)
# T1 construct: whole, on cells; also endogenous on human cardiac fibroblasts (functional entries); also called AT2 receptor
# T1 sequence (looked up): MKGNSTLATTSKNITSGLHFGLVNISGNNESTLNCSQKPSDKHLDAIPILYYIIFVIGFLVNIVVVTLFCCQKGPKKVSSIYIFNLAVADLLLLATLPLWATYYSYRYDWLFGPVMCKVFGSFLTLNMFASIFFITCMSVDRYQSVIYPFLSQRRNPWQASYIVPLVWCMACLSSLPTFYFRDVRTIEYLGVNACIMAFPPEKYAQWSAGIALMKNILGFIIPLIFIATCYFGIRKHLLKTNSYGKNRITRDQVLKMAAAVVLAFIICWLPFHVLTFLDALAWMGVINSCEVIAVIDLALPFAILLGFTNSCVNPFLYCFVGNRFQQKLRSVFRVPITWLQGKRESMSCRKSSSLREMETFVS
# Method: competition radioligand binding on HEK-293 cells with AT2R; competitor [125I]-Sar1Ile8Ang II
Square brackets hold non-standard residues; d marks the D form. Primed or numbered codes have the meaning given here. Ends that are not written are not given here. * marks the point of attachment. Cholyl = C[C@H](CCC(=O)*)[C@H]1CC[C@H]2[C@@H]3[C@H](O)C[C@@H]4C[C@H](O)CC[C@]4(C)[C@H]3C[C@H](O)[C@]12C; βPhe = beta-form phenylalanine; βIle = beta-form isoleucine; βArg = beta-form arginine; βTyr = beta-form tyrosine; βPro = beta-form proline; βVal″ = beta-form valine
Measurement Type: IC50 (nM)

Worked cases, IC50 given:
Binder | Data Value
RVYIHP[βPhe]-OH (synthetic peptide; also called Arg-Val-Tyr-Ile-His-Pro-β-Phe) [βPhe-Ang III] | 20.3
RV[βTyr]IHPF-OH (synthetic peptide; also called Arg-Val-β-Tyr-Ile-His-Pro-Phe) [βTyr-Ang III] | 1.82
R[βVal″]YIHPA-OH (synthetic peptide; also called Arg-β-Val-Tyr-Ile-His-Pro-Ala) [βVal-Ala-8-Ang III] | 8.1
nicotinamido-RVYIH[βPro]F-OH (synthetic peptide; also called Nicotinamido-Arg-Val-Tyr-Ile-His-β-Pro-Phe) [Nic-βPro-Ang III] | 0.12
[βArg]VYIHPA-OH (synthetic peptide; also called β-Arg-Val-Tyr-Ile-His-Pro-Ala) [βArg-Ala-8-Ang III] | 6.5
RV[βTyr]IHPW-OH (synthetic peptide; also called β-Tyr^4-Trp^8-Ang III; β-Tyro-Trp^8-Ang III) [βTyr-Trp-8-Ang III] | 0.384
RVYIHP[βIle]-OH (synthetic peptide; also called Arg-Val-Tyr-Ile-His-Pro-β-Ile) [βIle-8-Ang III] | 9.6

[A] Ac-RVYIH[βPro]W-OH (synthetic peptide; also called N-Ac-β-Pro^7-Trp^8-Ang III; N-Ac-Pro^7-Trp^8-Ang III) [NAc-βPro-Trp-8-Ang III]
[B] D[βArg]VYIHPA-OH (synthetic peptide; also called Asp-β-Arg-Val-Tyr-Ile-His-Pro-Ala) [βArg-Ala-8-Ang II]
[C] [dR]VYIHPF-OH (synthetic peptide; also called D-Arg-Val-Tyr-Ile-His-Pro-Phe) [D-Arg-Ang III]
[D] Cholyl-RVYIH[βPro]F-OH (synthetic peptide; also called Cholate-Arg-Val-Tyr-Ile-His-β-Pro-Phe) [Cholic Acid-βPro-Ang III]
Please order the records by their reported IC50, lowest number first. Rank them, then answer with their labels in that order.
D, A, B, C
